conditions: 308.15 K, Pendant drop shape
The following molecules are listed with their measured surface tension liquid-gas values.
Express the result in mN/m but write the number alone.

Some molecules with recorded surface tension liquid-gas:
{"MOLECULE": "CCCCCO [pentan-1-ol]", "surface tension liquid-gas [mN/m]": 23.96}
{"MOLECULE": "ClCCCCCCCl [1,6-dichlorohexane]", "surface tension liquid-gas [mN/m]": 33.09}
{"MOLECULE": "BrCBr [dibromomethane]", "surface tension liquid-gas [mN/m]": 36.32}
{"MOLECULE": "BrCCCCCBr [1,5-dibromopentane]", "surface tension liquid-gas [mN/m]": 37.6}

Lookup: Look up surface tension liquid-gas: BrCCBr [1,2-dibromoethane]
Found: 36.75

Lookup: Look up surface tension liquid-gas: ClCCCCCl [1,4-dichlorobutane]
Found: 32.1

Lookup: Look up surface tension liquid-gas: ClCCCCCCl [1,5-dichloropentane]
Found: 33.22

Lookup: Look up surface tension liquid-gas: BrCCCBr [1,3-dibromopropane]
Found: 37.6

Lookup: Look up surface tension liquid-gas: ClCCCl [1,2-dichloroethane]
Found: 26.54
